Settings: pH 7.4
Method: Briefly, aliquots (2 μL) of the ^68Ga-labeled peptides were added into a 15 mL falcon tube containing 3 mL of n-octanol and 3 mL of 0.1 mol/L DPBS (pH 7.4). The mixture was vortexed for 1 min and then centrifuged at 3000 rpm for 15 min. Samples of the n-octanol (1 mL) and buffer (1 mL) layers were collected and measured in a gamma counter. LogD7.4 was calculated using the following equation: LogD7.4 = log10 [(counts in the n-octanol phase)/(counts in the buffer phase)].

{"molecule": "CC(C)C[C@H](NC(=O)[C@H](Cc1c[nH]cn1)NC(=O)CNC(=O)[C@@H](NC(=O)[C@H](C)NC(=O)[C@H](Cc1c[nH]c2ccccc12)NC(=O)[C@H](CCC(N)=O)NC(=O)[C@@H](Cc1ccccc1)NC(=O)CN1CCC(NC(=O)CN2CCN(CC(=O)O)CCN(CC(=O)O)CCN(CC(=O)O)CC2)CC1)C(C)C)C(=O)N1CSC[C@H]1C(N)=O [[^68Ga]Ga-TacBOMB2, metal not drawn]", "logD": -3.21}
{"molecule": "CC(C)C[C@H](NC(=O)[C@H](Cc1c[nH]cn1)NC(=O)CNC(=O)[C@@H](NC(=O)[C@H](C)NC(=O)[C@H](Cc1c[nH]c2ccccc12)NC(=O)[C@H](CCC(N)=O)NC(=O)[C@@H](Cc1ccc2ccccc2c1)NC(=O)CN1CCC(NC(=O)CN2CCN(CC(=O)O)CCN(CC(=O)O)CCN(CC(=O)O)CC2)CC1)C(C)C)C(=O)N1CSC[C@H]1C(N)=O [[^68Ga]Ga-TacBOMB3, metal not drawn]", "logD": -2.55}

* * *

assay: Ex vivo biodistribution in PC-3 tumor-bearing mice; set-up: species or system NRG mice; conditions: mouse, intestines, intravenous, 100 ug, 1 h blocked: co-injected with 100 µg of [D-Phe6,Leu-NHEt13,des-Met14]Bombesin(6-14), n = 4; read-out: Intestines uptake

{"compound": "CC(C)C[C@H](NC(=O)[C@H](Cc1c[nH]cn1)NC(=O)CNC(=O)[C@@H](NC(=O)[C@H](C)NC(=O)[C@H](Cc1c[nH]c2ccccc12)NC(=O)[C@H](CCC(N)=O)NC(=O)[C@@H](Cc1ccccc1)NC(=O)CN1CCC(NC(=O)CN2CCN(CC(=O)O)CCN(CC(=O)O)CCN(CC(=O)O)CC2)CC1)C(C)C)C(=O)N1CSC[C@H]1C(N)=O [[^68Ga]Ga-TacBOMB2, metal not drawn]", "tissue uptake at 1 h": "0.28 %ID/g"}

* * *

experiment: Ex vivo biodistribution in PC-3 tumor-bearing mice; set-up: species or system NRG mice; settings: mouse, kidneys, intravenous, 100 ug, 1 h blocked: co-injected with 100 µg of [D-Phe6,Leu-NHEt13,des-Met14]Bombesin(6-14), n = 4; read-out: Kidneys uptake

{"compound": "CC(C)C[C@H](NC(=O)[C@H](Cc1c[nH]cn1)NC(=O)CNC(=O)[C@@H](NC(=O)[C@H](C)NC(=O)[C@H](Cc1c[nH]c2ccccc12)NC(=O)[C@H](CCC(N)=O)NC(=O)[C@@H](Cc1ccccc1)NC(=O)CN1CCC(NC(=O)CN2CCN(CC(=O)O)CCN(CC(=O)O)CCN(CC(=O)O)CC2)CC1)C(C)C)C(=O)N1CSC[C@H]1C(N)=O [[^68Ga]Ga-TacBOMB2, metal not drawn]", "tissue uptake at 1 h (%ID/g)": 1.99}
